Reference for the values: ChEMBL document CHEMBL1125206

Mu-type opioid receptor (Cavia porcellus) data, read-out pKi
Sequence (P97266 whole entry): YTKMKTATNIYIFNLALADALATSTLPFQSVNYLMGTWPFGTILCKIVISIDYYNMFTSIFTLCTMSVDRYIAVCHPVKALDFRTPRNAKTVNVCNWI
Starred links: 1 amine or outer side, 2 acyl side, 3 side chain; linkers in the order of their positions; H or OH if unused. Residues, ends and D or L forms follow the SMILES beside them. Ethylenediamine = C(CN[*:2])N[*:1]; GABA = NCCCC(=O)O
In plain terms, pKi is the concentration in mol/L turned into minus its base-10 logarithm.

Reference set (4 entries):
[
  {
    "Molecule": "CC[C@H](C)[C@H](NC(=O)[C@H](CCCNC(=N)N)NC(=O)[C@H](CCCNC(=N)N)NC(=O)[C@H](CC(C)C)NC(=O)[C@H](Cc1ccccc1)NC(=O)CNC(=O)CNC(=O)[C@@H](N)Cc1ccc(O)cc1)C(=O)N[C@@H](CCCNC(=N)N)C(=O)N1CCC[C@H]1C(=O)N[C@@H](CCCCN)C(=O)N[C@@H](CC(C)C)C(=O)N[C@@H](CCCCN)C(=O)O",
    "pKi": 7.30
  },
  {
    "Molecule": "NCCCC(=O)NCCNC(=O)[C@H](Cc1ccccc1)NC(=O)CNC(=O)CNC(=O)[C@@H](N)Cc1ccc(O)cc1 (H-YGGF-{Ethylenediamine-GABA})",
    "pKi": 4.78
  },
  {
    "Molecule": "NCCCC(=O)NCCN(CCN(CCNC(=O)[C@H](Cc1ccccc1)NC(=O)CNC(=O)CNC(=O)[C@@H](N)Cc1ccc(O)cc1)C(=O)CCCN)C(=O)CCCN (HELM PEPTIDE1{Y.G.G.F.[NCCCC(=O)NCCN(CCN(CCN[*:1])C(=O)CCCN)C(=O)CCCN]}$$$$V2.0)",
    "pKi": 5.17
  },
  {
    "Molecule": "NCCCC(=O)NCCCN(CCCNC(=O)[C@H](Cc1ccccc1)NC(=O)CNC(=O)CNC(=O)[C@@H](N)Cc1ccc(O)cc1)C(=O)CCCN (HELM PEPTIDE1{Y.G.G.F.[NCCCC(=O)NCCCN(CCCN[*:1])C(=O)CCCN]}$$$$V2.0)",
    "pKi": 5.14
  }
]

Could you now look at the following molecule, please?
Given the entry NCCCC(=O)NCCN(CCNC(=O)[C@H](Cc1ccccc1)NC(=O)CNC(=O)CNC(=O)[C@@H](N)Cc1ccc(O)cc1)C(=O)CCCN (HELM PEPTIDE1{Y.G.G.F.[NCCCC(=O)NCCN(CCN[*:1])C(=O)CCCN]}$$$$V2.0) , report its measured pKi. 4.84

###

# Tested On: Kappa-type opioid receptor (Cavia porcellus)
# Sequence (P41144 whole entry): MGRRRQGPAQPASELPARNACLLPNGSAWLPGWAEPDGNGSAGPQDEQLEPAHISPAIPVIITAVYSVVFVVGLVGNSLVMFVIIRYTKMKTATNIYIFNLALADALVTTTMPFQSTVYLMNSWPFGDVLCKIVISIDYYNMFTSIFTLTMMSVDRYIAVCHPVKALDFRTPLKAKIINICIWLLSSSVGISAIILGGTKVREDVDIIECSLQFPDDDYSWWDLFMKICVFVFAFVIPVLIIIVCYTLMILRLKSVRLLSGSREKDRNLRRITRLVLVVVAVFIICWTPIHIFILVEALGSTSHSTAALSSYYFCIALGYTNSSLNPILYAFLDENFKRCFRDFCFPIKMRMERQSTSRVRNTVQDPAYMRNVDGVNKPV
Starred links: 1 amine or outer side, 2 acyl side, 3 side chain; linkers in the order of their positions; H or OH if unused. Residues, ends and D or L forms follow the SMILES beside them. Ethylenediamine = C(CN[*:2])N[*:1]; GABA = NCCCC(=O)O
Please use 1.0 for Ki under 9 µM and 0.0 for everything else, ties included.

[
  {
    "Molecule": "NCCCC(=O)NCCNC(=O)[C@H](Cc1ccccc1)NC(=O)CNC(=O)CNC(=O)[C@@H](N)Cc1ccc(O)cc1 (H-YGGF-{Ethylenediamine-GABA})",
    "Tested On": "Kappa-type opioid receptor (Cavia porcellus)",
    "Class": 0.0
  }
]

Field: below-cutoff. Rule: recorded Ki strictly less than 9 µM. Subject: NCCCC(=O)NCCCN(CCCNC(=O)[C@H](Cc1ccccc1)NC(=O)CNC(=O)CNC(=O)[C@@H](N)Cc1ccc(O)cc1)C(=O)CCCN (HELM PEPTIDE1{Y.G.G.F.[NCCCC(=O)NCCCN(CCCN[*:1])C(=O)CCCN]}$$$$V2.0) 1.0

Continue with CC[C@H](C)[C@H](NC(=O)[C@H](CCCNC(=N)N)NC(=O)[C@H](CCCNC(=N)N)NC(=O)[C@H](CC(C)C)NC(=O)[C@H](Cc1ccccc1)NC(=O)CNC(=O)CNC(=O)[C@@H](N)Cc1ccc(O)cc1)C(=O)N[C@@H](CCCNC(=N)N)C(=O)N1CCC[C@H]1C(=O)N[C@@H](CCCCN)C(=O)N[C@@H](CC(C)C)C(=O)N[C@@H](CCCCN)C(=O)O 1.0

Then this molecule: NCCCC(=O)NCCN(CCN(CCNC(=O)[C@H](Cc1ccccc1)NC(=O)CNC(=O)CNC(=O)[C@@H](N)Cc1ccc(O)cc1)C(=O)CCCN)C(=O)CCCN (HELM PEPTIDE1{Y.G.G.F.[NCCCC(=O)NCCN(CCN(CCN[*:1])C(=O)CCCN)C(=O)CCCN]}$$$$V2.0) 1.0
